test system: CD1 mice; assay: Intracerebroventricular (icv) antinociceptive activity in CD1 mice; assay type: in vivo; settings: CD1 mice, confidence range in brackets

{"MOLECULE": "CN1CC[C@]23c4c5ccc(O)c4O[C@H]2[C@@H](O)C=C[C@H]3[C@H]1C5 [Morphine, reference compound]", "Icv ED50 values": "2.68 nmol/mouse"}
{"MOLECULE": "CN1CC[C@]23c4c5ccc(O)c4O[C@H]2[C@@H](NC(=O)COCCOCc2cn(CCOCCOCC(=O)N[C@@H]4CC[C@@]6(O)C7Cc8ccc(O)c9c8[C@@]6(CCN7C)[C@H]4O9)nn2)CC[C@@]3(O)C1C5", "Icv ED50 values": "0.571 nmol/mouse (0.423-0.770)"}
{"MOLECULE": "CN1CC[C@]23c4c5ccc(O)c4O[C@H]2[C@@H](NC(=O)COCCOCCOCc2cn(CCOCCOCC(=O)N[C@H]4CC[C@@]6(O)C7Cc8ccc(O)c9c8[C@@]6(CCN7C)[C@H]4O9)nn2)CC[C@@]3(O)C1C5", "Icv ED50 values": "0.272 nmol/mouse (0.164-0.453)"}
{"MOLECULE": "CN1CC[C@]23c4c5ccc(O)c4O[C@H]2[C@@H](NC(=O)COCCOCCn2cc(COCC(=O)N[C@H]4CC[C@@]6(O)C7Cc8ccc(O)c9c8[C@@]6(CCN7C)[C@H]4O9)nn2)CC[C@@]3(O)C1C5", "Icv ED50 values": "0.190 nmol/mouse (0.065-0.558)"}

meta.source: patent US8461171B2
